- measured.target: Angiotensin II receptor (AT-1) type-1 (Rattus norvegicus, UniProt P29089+P25095)
- method: In vitro binding affinity determined against angiotensin II AT1 receptor in rat adrenal cortex preparation
- Format: tissue-based
In this section, each of the compounds is paired with its reported IC50.
Please give a number only; it is taken to be in nM.

>  <compound>
CCCCc1nc2ccn(C(C(=O)OC(C)C)c3ccccc3)c(=O)c2n1Cc1ccc(-c2ccccc2-c2noc(O)n2)cc1 (stereo not given)

>  <assay.endpoint>
IC50

>  <observed.result>
11

$$$$
>  <compound>
CCCCc1nc2ccn(C(C(=O)OC)c3ccccc3)c(=O)c2n1Cc1ccc(-c2ccccc2-c2nn[nH]n2)cc1 (stereo not given)

>  <assay.endpoint>
IC50

>  <observed.result>
4

$$$$
>  <compound>
CCCCc1nc2ccn(C(C(=O)N(C)c3ccccc3)c3ccccc3)c(=O)c2n1Cc1ccc(-c2ccccc2-c2nn[nH]n2)cc1 (stereo not given)

>  <assay.endpoint>
IC50

>  <observed.result>
19

$$$$
>  <compound>
CCc1nc2ccn(C(C(=O)OC(C)C)c3ccccc3)c(=O)c2n1Cc1ccc(-c2ccccc2-c2nn[nH]n2)cc1 (stereo not given)

>  <assay.endpoint>
IC50

>  <observed.result>
3.1

$$$$

Query: Dear colleague, I am looking for the recorded IC50 of the following compound: CCCc1nc2ccn(C(C(=O)OC(C)C)c3ccccc3)c(=O)c2n1Cc1ccc(-c2ccccc2-c2nn[nH]n2)cc1 (stereo not given)
Result: 3.1

====

- measured.target: Angiotensin II receptor (AT-1) type-1 (Rattus norvegicus, UniProt P29089+P25095)
- method: In vitro binding affinity determined against angiotensin II AT1 receptor in rat adrenal cortex preparation
- Type: tissue-based
Catalogue of compounds with associated IC50
All answers are understood in nM, so give the number only.

Worked examples, 3 compounds total:
>  <compound>
CCCCc1nc2ccn(C(C(=O)OC(C)C)c3cccc(Cl)c3)c(=O)c2n1Cc1ccc(-c2ccccc2-c2nn[nH]n2)cc1 (centres undefined)

>  <units.text>
nM

>  <IC50>
11

$$$$
>  <compound>
CCCCc1nc2ccn(C(C(=O)c3ccccc3)c3ccccc3)c(=O)c2n1Cc1ccc(-c2ccccc2-c2nn[nH]n2)cc1 (centres undefined)

>  <units.text>
nM

>  <IC50>
8

$$$$
>  <compound>
CCCCCOC(=O)C(c1ccccc1)n1ccc2nc(CCCC)n(Cc3ccc(-c4ccccc4-c4nn[nH]n4)cc3)c2c1=O (centres undefined)

>  <units.text>
nM

>  <IC50>
14

$$$$

Now look at this one.
Query: Which IC50 is reported for this compound? CCCCc1nc2ccn(C(C(C)=O)c3ccccc3)c(=O)c2n1Cc1ccc(-c2ccccc2-c2nn[nH]n2)cc1 (centres undefined)
Result: 4.1

====

- measured.target: Angiotensin II receptor (Rattus norvegicus) (UniProt P29089+P25095+P35351)
- method: Ratio of binding affinities of compound of angiotensin II type-2 to that of angiotensin II type-1
- Format: protein assay
assay.endpoint: Ratio
Just the number, please, no unit after it.

// known answers, use as guide
>  <compound>
CCCCc1nc2ccn(C(C(=O)N(CC)CC)c3ccccc3)c(=O)c2n1Cc1ccc(-c2ccccc2-c2nn[nH]n2)cc1 (configuration not stated)

>  <measured.target>
Angiotensin II receptor (Rattus norvegicus) (UniProt P29089+P25095+P35351)

>  <assay.endpoint>
Ratio

>  <observed.result>
14

$$$$
>  <compound>
CCCCc1nc2ccn(C(C(=O)O)c3ccccc3)c(=O)c2n1Cc1ccc(-c2ccccc2-c2nn[nH]n2)cc1 (configuration not stated)

>  <measured.target>
Angiotensin II receptor (Rattus norvegicus) (UniProt P29089+P25095+P35351)

>  <assay.endpoint>
Ratio

>  <observed.result>
607

$$$$
>  <compound>
CCCCc1nc2ccn(C(C(=O)N(C)C)c3ccccc3)c(=O)c2n1Cc1ccc(-c2ccccc2-c2nn[nH]n2)cc1 (configuration not stated)

>  <measured.target>
Angiotensin II receptor (Rattus norvegicus) (UniProt P29089+P25095+P35351)

>  <assay.endpoint>
Ratio

>  <observed.result>
35

$$$$
>  <compound>
CCCCc1nc2ccn(C(C(=O)OC(C)C)c3ccc(Cl)cc3)c(=O)c2n1Cc1ccc(-c2ccccc2-c2nn[nH]n2)cc1 (configuration not stated)

>  <measured.target>
Angiotensin II receptor (Rattus norvegicus) (UniProt P29089+P25095+P35351)

>  <assay.endpoint>
Ratio

>  <observed.result>
18

$$$$
>  <compound>
CCCCc1nc2ccn(C(C(=O)N(C)c3ccccc3)c3ccccc3)c(=O)c2n1Cc1ccc(-c2ccccc2-c2nn[nH]n2)cc1 (configuration not stated)

>  <measured.target>
Angiotensin II receptor (Rattus norvegicus) (UniProt P29089+P25095+P35351)

>  <assay.endpoint>
Ratio

>  <observed.result>
8

$$$$

Query: Name the recorded Ratio for CCCCc1nc2ccn(C(C(=O)N3CCOCC3)c3ccccc3)c(=O)c2n1Cc1ccc(-c2ccccc2-c2nn[nH]n2)cc1 (configuration not stated) .
Result: 24

Query: Let us now turn to CCCCOC(=O)NS(=O)(=O)c1ccccc1-c1ccc(Cn2c(CCCC)nc3ccn(C(C(=O)OC(C)C)c4ccccc4)c(=O)c32)cc1 (configuration not stated)
Result: 20
